- Test system: MCF-7 cells
- Assay Remarks: Cell growth inhibition using MCF-7 cells
- Type: cell-based
- Test Settings: Homo sapiens, MCF7
Endpoint Name: IC50 (µM)
Give the value in µM but do not write µM after it.

**Q:** Entry COc1ccc(NS(=O)(=O)c2cc(OC)c(OC)c(OC)c2)cc1O [Example 1] : reported IC50 = ?
**A:** 0.15
